- tested target: CDK7/cyclinH/MAT1 trimeric complex (Homo sapiens)
- procedure summary: In vitro CDK7 assay, potency of irreversible covalent inhibitors (kinact/KI), coupled PK/LDH ADP readout at 340 nm
- measurement setup: read-out: CDK7 (20 nM enz.) (kinact/KI, M^−1*s^−1), 20 nM enzyme
measured endpoint: kinact/KI (M⁻¹ s⁻¹)

Here is how some molecules turned out for kinact/KI.
>>> experimental_result("C=CC(=O)N1CC(N2CCN(c3cc4c(c(C)n3)OCc3c(N5CCOCC5)ccnc3N4)CC2)C1")
468
>>> experimental_result("C=CC(=O)N1CC(N2CC[C@@H](c3ccc4c(c3)Nc3nccc(N5CCOCC5)c3CO4)[C@@H](O)C2)C1 (mixture of isomers)")
486
>>> experimental_result("C=CC(=O)N1CC(N2CCC(c3cc4c(cn3)O[C@@H](C)c3c(N5CCOCC5)ccnc3N4)CC2)C1 (single isomer, unassigned) [Compound 261]")
34.9
>>> experimental_result("C=CC(=O)N1CC[C@H](N2CC(c3cc4c(c(C)n3)OCc3c(-c5cnn(C)c5)ccnc3N4)C2)[C@H](F)C1 (mixture of isomers)")
183
>>> experimental_result("CC#CC(=O)N1CC[C@@H](N2CCC(c3cc4c(c(C)n3)OCc3c(-c5cnn(C)c5)ccnc3N4)CC2)C1 (single isomer, unassigned)")
615

A = CC#CC(=O)N1CC(N2CCC(c3cc4c(c(C5CC5)n3)O[C@@H](C)c3c(N5CCOCC5)ccnc3N4)CC2)C1 (single isomer, unassigned)
B = C=CC(=O)Nc1ccc(-c2cc3c(cn2)OCc2c(N4CCOCC4)ccnc2N3)cc1
Q. Which gives the smaller kinact/KI number: A or B ? Record your answer as the label of the chosen record.
A. A
(A: 594 M⁻¹ s⁻¹, B: 1750 M⁻¹ s⁻¹)

A = C=CC(=O)N1CC[C@H](N2CC(c3cc4c(c(C)n3)O[C@H](C)c3c(-c5cnn(C)c5)ccnc3N4)C2)C1 (single isomer, unassigned)
B = C=CC(=O)N1CCC(N2CC(c3cc4c(c(C(F)(F)F)c3)OCc3c(-c5cnn(C)c5)ccnc3N4)C2)CC1
C = C#Cc1cc2c(cc1C1CCN(C3CN(C(=O)C=C)C3)CC1)Nc1nccc(N3CCOCC3)c1C(C)O2 (stereo not shown)
D = C=CC(=O)N1CC(N2CCC(c3ccc4c(c3)Nc3nccc(-c5cnn(C)c5)c3[C@H](C)O4)CC2)C1 (single isomer, unassigned) [Compound 128]
E = CC#CC(=O)N1CCN(C2CN(c3cc4c(c(C)n3)OCc3c(N5CCOCC5)ccnc3N4)C2)CC1
Q. Sort (5 molecules) by kinact/KI: min first. # the answer lists labels in the order requested
A. D, E, A, C, B
(D: 11.3 M⁻¹ s⁻¹, E: 39.9 M⁻¹ s⁻¹, A: 292 M⁻¹ s⁻¹, C: 851 M⁻¹ s⁻¹, B: 1630 M⁻¹ s⁻¹)

* * *

- tested target: CDK7/cyclinH/MAT1 trimeric complex (Homo sapiens, UniProt P50613)
- Sequence (P50613 whole entry): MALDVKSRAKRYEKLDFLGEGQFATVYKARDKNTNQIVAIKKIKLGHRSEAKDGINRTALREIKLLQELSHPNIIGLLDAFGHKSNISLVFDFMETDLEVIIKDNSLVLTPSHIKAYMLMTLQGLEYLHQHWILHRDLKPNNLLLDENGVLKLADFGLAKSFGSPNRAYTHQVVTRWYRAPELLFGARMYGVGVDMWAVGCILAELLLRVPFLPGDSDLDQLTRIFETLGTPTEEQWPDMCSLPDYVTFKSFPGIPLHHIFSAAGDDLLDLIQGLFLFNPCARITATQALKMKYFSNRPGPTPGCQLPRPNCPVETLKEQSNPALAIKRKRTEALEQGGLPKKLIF
- Sequence (P51946 whole entry partner): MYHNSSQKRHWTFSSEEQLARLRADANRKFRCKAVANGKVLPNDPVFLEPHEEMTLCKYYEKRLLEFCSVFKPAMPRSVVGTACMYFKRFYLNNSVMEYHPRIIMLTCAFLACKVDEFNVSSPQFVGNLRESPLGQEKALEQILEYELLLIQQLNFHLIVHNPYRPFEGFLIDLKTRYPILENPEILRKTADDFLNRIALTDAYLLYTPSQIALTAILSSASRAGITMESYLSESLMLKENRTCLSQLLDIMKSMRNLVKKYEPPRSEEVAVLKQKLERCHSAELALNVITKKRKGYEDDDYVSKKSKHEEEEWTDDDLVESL
- Sequence (P51948 whole entry partner): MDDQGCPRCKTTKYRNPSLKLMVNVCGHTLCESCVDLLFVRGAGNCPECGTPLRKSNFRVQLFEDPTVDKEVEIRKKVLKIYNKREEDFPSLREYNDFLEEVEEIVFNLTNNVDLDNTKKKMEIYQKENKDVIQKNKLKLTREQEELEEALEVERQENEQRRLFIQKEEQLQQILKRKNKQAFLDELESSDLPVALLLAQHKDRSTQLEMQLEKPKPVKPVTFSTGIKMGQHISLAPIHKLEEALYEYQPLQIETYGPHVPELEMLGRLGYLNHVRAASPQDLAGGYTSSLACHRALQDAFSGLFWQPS
- procedure summary: In vitro CDK7 assay, potency of irreversible covalent inhibitors (kinact/KI), coupled PK/LDH ADP readout at 340 nm
- measurement setup: read-out: CDK7 (20 nM enz.) (kinact/KI, M^−1*s^−1), 20 nM enzyme
measured endpoint: kinact/KI (M⁻¹ s⁻¹)

I = CC#CC(=O)N1CC(N2CCC(c3cc(C#N)c4c(c3)Nc3nccc(N5CCOCC5)c3[C@H](C)O4)CC2)C1 (single isomer, unassigned) [Compound 442]
II = C=CC(=O)N1CCC(N2CC(c3cc(F)c4c(c3)Nc3nccc(C5CCOCC5)c3CO4)C2)CC1 [Compound 112]
Q. Higher kinact/KI between I and II ? Record your answer as the label of the chosen record.
A. II

* * *

- tested target: CDK7/cyclinH/MAT1 trimeric complex (Homo sapiens, UniProt P50613)
- procedure summary: In vitro CDK7 assay, potency of irreversible covalent inhibitors (kinact/KI), coupled PK/LDH ADP readout at 340 nm
- measurement setup: CDK7 (20 nM enz.) (KI, μM), 20 nM enzyme
measured endpoint: Ki (µM)

>>> experimental_result("C=CC(=O)N1CC(N2CCC(c3cc4c(cn3)O[C@H](C)c3c(N5CCOCC5)ccnc3N4)CC2)C1 (single isomer, unassigned) [compound 171]")
0.0278

I = CC#CC(=O)N1CC(N2CC(c3cc4c(c(C)n3)O[C@H](C)c3c(N5CCOCC5)ccnc3N4)C2)C1 (single isomer, unassigned) [Compound 355]
II = C#Cc1cc2c(cc1C1CCN(C3CN(C(=O)C=C)C3)CC1)Nc1nccc(C3CCOCC3)c1CO2
Q. Higher Ki between I and II ? Record your answer as the label of the chosen record.
A. I

* * *

- tested target: CDK7/cyclinH/MAT1 trimeric complex (Homo sapiens)
- procedure summary: In vitro CDK7 assay, potency of irreversible covalent inhibitors (kinact/KI), coupled PK/LDH ADP readout at 340 nm
- measurement setup: read-out: CDK7 (kinact, s^−1), kinact = maximal rate of inactivation; 1 mM ATP, room temperature; averaged values over all measurements
measured endpoint: kinact (s⁻¹)

Here is how some compounds turned out for kinact.
>>> experimental_result("C=CC(=O)N1CCC(c2ccc(-c3ccc4c(c3)Nc3nccc(N5CCOCC5)c3CO4)cn2)C1 (stereo not shown) [Compound 25]")
"2.33e-05"
>>> experimental_result("C=CC(=O)N1CC(N2CCC(c3ccc4c(c3)Nc3nccc(C5=CCOCC5)c3CO4)CC2)C1 [Compound 10]")
0.000107
>>> experimental_result("C=CC(=O)N1CC(N2CCC(c3ccc4c(c3)Nc3nccc(N5CCC6(CCO6)CC5)c3CO4)CC2)C1 [Compound 46]")
0.000102

a = CC#CC(=O)N1CC(N2CCC(c3ccc4c(c3)Nc3nccc(N5CCOCC5)c3CO4)CC2)C1 [Compound 50]
b = C=CC(=O)N1CC(c2ccc(-c3ccc4c(c3)Nc3nccc(N5CCOCC5)c3CO4)cn2)C1 [Compound 43]
Q. Which gives the smaller kinact number: a or b ? Record your answer as the label of the chosen record.
A. b
(b: 5.46e-05 s⁻¹, a: 0.000144 s⁻¹)

1 = C=CC(=O)N1CC(N2CCC(c3ccc4c(c3)OCc3c(N5CCOCC5)ccnc3N4)CC2)C1 [Compound 35]
2 = C=CC(=O)N1CC(c2ncc(-c3ccc4c(c3)Nc3nccc(N5CCOCC5)c3CO4)cn2)C1 [Compound 56]
Q. Which gives the smaller kinact number: 1 or 2 ? Record your answer as the label of the chosen record.
A. 2

a = C=CC(=O)N1CC(N2CCC(c3ccc4c(c3)Nc3nccc(N5CCOC6(CCOCC6)C5)c3CO4)CC2)C1 [Compound 47]
b = C=CC(=O)N1CC(N2CCC(c3ccc4c(c3)Nc3nccc(N5CCOCC5)c3CO4)CC2)C1 [Compound 4]
Q. Which gives the smaller kinact number: a or b ? Record your answer as the label of the chosen record.
A. a
(a: 0.000125 s⁻¹, b: 0.000303 s⁻¹)

A = C=CC(=O)N1CC(N2CCC(c3ccc4c(c3)Nc3nccc(-c5cnc6[nH]ccc6c5)c3CO4)CC2)C1 [Compound 31]
B = C=CC(=O)N1CC(N2CCCC(c3ccc4c(c3)Nc3nccc(N5CCOCC5)c3CO4)CC2)C1 (stereo not shown) [Compound 42]
Q. Higher kinact between A and B ? Record your answer as the label of the chosen record.
A. A

* * *

- tested target: CDK7/cyclinH/MAT1 trimeric complex (Homo sapiens)
- procedure summary: In vitro CDK7 assay, potency of irreversible covalent inhibitors (kinact/KI), coupled PK/LDH ADP readout at 340 nm
- measurement setup: CDK7 (20 nM enz.) (KI, μM), 20 nM enzyme
measured endpoint: Ki (µM)

Here is how some compounds turned out for Ki.
>>> experimental_result("CC#CC(=O)N1CC(N2CC[C@@H](c3cc4c(c(C)n3)O[C@H](C)c3c(N5CCOCC5)ccnc3N4)N(C)CC2)C1 (single isomer, unassigned)")
1.81
>>> experimental_result("C=CC(=O)N1CC(N2CCC(c3cc4c(cn3)O[C@@H](C)c3c(N5CCOCC5)ccnc3N4)CC2)C1 (single isomer, unassigned) [Compound 172]")
1.4
>>> experimental_result("C=CC(=O)N1CC(N2CC(c3cc4c(c(C)n3)OCc3c(N5CCOCC5)ccnc3N4)C2)C1 [Compound 205]")
0.119
>>> experimental_result("C=CC(=O)N1CC(N2CCC(c3ccc4c(c3)Nc3nccc(N5CCOCC5)c3CO4)CC2)C1 [Compound 121]")
0.0963
>>> experimental_result("C=CC(=O)N1CC(N2CCC(O)(c3ccc4c(c3)Nc3nccc(N5CCOCC5)c3CO4)CC2)C1")
0.0563

P = C=CC(=O)N1CC(N2CC(c3cc4c(c(C)n3)OCc3c(N5CCOCC5)ccnc3N4)C2)C1 [Compound 273]
Q = C=CC(=O)N1CC(N2CC(c3cc4c(c(C)n3)OCc3c(-c5cnn(C)c5)ccnc3N4)C2)C1
R = CC#CC(=O)N1CC(N2CCC(c3cc4c(c(C)n3)O[C@H](C)c3c(N5CCOCC5)ccnc3N4)CC2)C1 (single isomer, unassigned) [Compound 345]
S = C=CC(=O)N1CC[C@H](N2CCC(c3cc4c(c(C)n3)OCc3c(N5CCOCC5)ccnc3N4)CC2)C1 (single isomer, unassigned) [Compound 183]
Q. Sort (4 compounds) by Ki: min first. # the answer lists labels in the order requested
A. P, S, R, Q
(P: 0.0474 µM, S: 0.0731 µM, R: 0.131 µM, Q: 0.365 µM)
